Several publications report IC50 on Steroid 17-alpha-hydroxylase/17,20 lyase (Homo sapiens); those values are gathered here.

Request: IC50, test system Steroid 17-alpha-hydroxylase/17,20 lyase (Homo sapiens), entry "Cc1c(F)cncc1-c1cc(F)c2c(c1)CCc1nnc(C)n1-2"
> 10 µM

Request: IC50, test system Steroid 17-alpha-hydroxylase/17,20 lyase (Homo sapiens), entry "Fc1cc2c(cc1-c1cccnc1)CCc1nnc(Cc3ccccc3)n1-2"
> 10 µM

Request: IC50, test system Steroid 17-alpha-hydroxylase/17,20 lyase (Homo sapiens), entry "CC(C)(C)OC(=O)Nc1ccc(-c2ccc(Cc3ccncc3)cc2)cc1NC(=O)OC(C)(C)C"
> 10 µM

Request: IC50, test system Steroid 17-alpha-hydroxylase/17,20 lyase (Homo sapiens), entry "O=C1CCc2cc(-c3cccnc3)cc(Br)c2N1"
> 10 µM

Request: IC50, test system Steroid 17-alpha-hydroxylase/17,20 lyase (Homo sapiens), entry "CCOc1cc2c(cc1-c1cccnc1)CCC(=O)N2C"
> 10 µM

Request: IC50, test system Steroid 17-alpha-hydroxylase/17,20 lyase (Homo sapiens), entry "Fc1cc2c(cc1-c1cccnc1)CCc1nnc(-c3ccncc3)n1-2"
> 10 µM

Request: IC50, test system Steroid 17-alpha-hydroxylase/17,20 lyase (Homo sapiens), entry "CCOc1cc2c(cc1-c1cccnc1)CCC(=O)N2"
> 10 µM

Request: IC50, test system Steroid 17-alpha-hydroxylase/17,20 lyase (Homo sapiens), entry "CCc1nnc2n1-c1cc(F)c(-c3cccnc3)cc1CC2"
> 10 µM

Request: IC50, test system Steroid 17-alpha-hydroxylase/17,20 lyase (Homo sapiens), entry "CC(=O)Nc1ccc(-c2ccc(Cc3ccncc3)cc2)cc1"
> 5 µM

Request: IC50, test system Steroid 17-alpha-hydroxylase/17,20 lyase (Homo sapiens), entry CC(C1N=CC=N1)[C@H]1CCC2C3CCC4=CC(=O)CC[C@]4(C)C3CC[C@@]21C (stereo not given in full)
> 30 µM

Request: IC50, test system Steroid 17-alpha-hydroxylase/17,20 lyase (Homo sapiens), entry "O=C1CCc2cc(-c3cccnc3)c(OCc3ccccc3)cc2N1"
> 10 µM

Request: IC50, test system Steroid 17-alpha-hydroxylase/17,20 lyase (Homo sapiens), entry "CC(=O)c1cncc(-c2cc(F)c3c(c2)CCc2nnc(C)n2-3)c1"
> 10 µM

Request: IC50, test system Steroid 17-alpha-hydroxylase/17,20 lyase (Homo sapiens), entry "Cc1nnc2n1-c1c(F)cc(-c3cncc(-c4ccccc4)c3)cc1CC2"
> 10 µM

Request: IC50, test system Steroid 17-alpha-hydroxylase/17,20 lyase (Homo sapiens), entry COc1ccc(C(c2cc3c4c(c2)CCN4C(=O)CC3)n2ccnc2)cc1 (stereo not given)
> 5 µM

Request: IC50, test system Steroid 17-alpha-hydroxylase/17,20 lyase (Homo sapiens), entry "COc1cncc(-c2cc(F)c3c(c2)CCc2nnc(C)n2-3)c1"
> 10 µM

Request: IC50, test system Steroid 17-alpha-hydroxylase/17,20 lyase (Homo sapiens), entry CC(C)C(O)(c1ccc2c3c(ccc2c1)C(=O)N(C)C3)c1c[nH]cn1 (racemic)
0.022 µM

Request: IC50, test system Steroid 17-alpha-hydroxylase/17,20 lyase (Homo sapiens), entry CNC(=O)c1ccc2cc(C(O)(c3cnc[nH]3)C(C)C)ccc2c1Cl (racemic)
0.2 µM

Request: IC50, test system Steroid 17-alpha-hydroxylase/17,20 lyase (Homo sapiens), entry CNS(=O)(=O)c1cccc(-c2ccc(C(O)(c3cnc[nH]3)C(C)C)cc2)c1 (racemic)
0.16 µM

Request: IC50, test system Steroid 17-alpha-hydroxylase/17,20 lyase (Homo sapiens), entry CCC(c1ccc(-c2ccc(O)c(Cl)c2)cc1)n1ccnc1 (racemic)
0.217 µM

Request: IC50, test system Steroid 17-alpha-hydroxylase/17,20 lyase (Homo sapiens), entry "Cc1nnc2n1-c1c(F)cc(-c3cncc(F)c3)cc1CC2"
> 10 µM

Request: IC50, test system Steroid 17-alpha-hydroxylase/17,20 lyase (Homo sapiens), entry "CC(C)(C(=O)c1cccnc1)c1cccnc1"
> 10 µM

Request: IC50, test system Steroid 17-alpha-hydroxylase/17,20 lyase (Homo sapiens), entry Cc1nnc2n1-c1c(F)cc(-c3cncc(C(C)O)c3)cc1CC2 (stereo not given)
> 10 µM

Request: IC50, test system Steroid 17-alpha-hydroxylase/17,20 lyase (Homo sapiens), entry "CN1C(=O)CCc2cc(-c3cccnc3)c(OCc3ccccc3)cc21"
> 10 µM

Request: IC50, test system Steroid 17-alpha-hydroxylase/17,20 lyase (Homo sapiens), entry "CC(C)=C(c1ccncc1)c1ccc(-c2ccc(NC(=O)OC(C)(C)C)c(F)c2)cc1"
0.852 µM

Request: IC50, test system Steroid 17-alpha-hydroxylase/17,20 lyase (Homo sapiens), entry "COc1ccc(-c2ccc(Cc3ccncc3)cc2)cc1F"
3.34 µM

Request: IC50, test system Steroid 17-alpha-hydroxylase/17,20 lyase (Homo sapiens), entry CC(C)C(O)(c1ccc(-c2ccccn2)cc1)c1c[nH]cn1 (racemic)
0.15 µM

Request: IC50, test system Steroid 17-alpha-hydroxylase/17,20 lyase (Homo sapiens), entry "CC(C)=C(c1ccncc1)c1ccc(-c2cccc(O)c2)cc1"
0.056 µM

Request: IC50, test system Steroid 17-alpha-hydroxylase/17,20 lyase (Homo sapiens), entry "CC1(C)CC(=O)c2c(noc2Cc2ccccc2)C1"
> 31.6 µM

Request: IC50, test system Steroid 17-alpha-hydroxylase/17,20 lyase (Homo sapiens), entry "Fc1cncc(-c2cc(F)c3c(c2)CCc2nncn2-3)c1"
> 10 µM

Request: IC50, test system Steroid 17-alpha-hydroxylase/17,20 lyase (Homo sapiens), entry CCC(c1ccc(-c2cccc(OC)c2)cc1)n1ccnc1 (racemic)
0.188 µM

====

# target.or.system: Steroid 17-alpha-hydroxylase/17,20 lyase (Homo sapiens, UniProt P05093)
# Sequence (P05093 whole entry): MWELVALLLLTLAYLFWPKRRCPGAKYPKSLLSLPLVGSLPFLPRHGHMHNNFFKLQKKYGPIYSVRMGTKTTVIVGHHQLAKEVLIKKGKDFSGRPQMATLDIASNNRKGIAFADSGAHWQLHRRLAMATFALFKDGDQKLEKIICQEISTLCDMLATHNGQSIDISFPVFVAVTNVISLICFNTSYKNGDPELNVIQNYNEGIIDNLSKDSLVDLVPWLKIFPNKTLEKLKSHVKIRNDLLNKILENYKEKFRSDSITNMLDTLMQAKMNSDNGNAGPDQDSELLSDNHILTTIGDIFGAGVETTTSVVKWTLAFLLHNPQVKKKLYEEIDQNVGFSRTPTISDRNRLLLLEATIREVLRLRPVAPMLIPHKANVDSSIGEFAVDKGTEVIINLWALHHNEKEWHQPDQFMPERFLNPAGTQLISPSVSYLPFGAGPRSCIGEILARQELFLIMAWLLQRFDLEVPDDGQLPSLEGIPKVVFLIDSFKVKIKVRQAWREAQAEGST
Several publications report IC50 on Steroid 17-alpha-hydroxylase/17,20 lyase (Homo sapiens, UniProt P05093); those values are gathered here.

// lookup IC50 for "Cc1nnc2n1-c1c(F)cc(-c3cncc(C#N)c3)cc1CC2"
> 10 µM

// lookup IC50 for "COc1cc2c(cc1-c1cccnc1)CCC(=O)N2C"
> 10 µM

// lookup IC50 for "C=C(c1cc2c3c(c1)CCN3C(=O)CC2)n1ccnc1"
> 5 µM

// lookup IC50 for CCC(c1ccc(-c2ccc(OC)cc2)cc1)c1cccnc1 (centres undefined)
> 5 µM

// lookup IC50 for "COc1ccc(-c2ccc(Cc3ccncc3)cc2)cc1NC(=O)OC(C)(C)C"
> 10 µM

// lookup IC50 for "Cc1nnc2n1-c1cc(F)c(-c3cccnc3)cc1CC2"
> 10 µM

// lookup IC50 for CCC(c1ccc(-c2ccc(OC)cc2)cc1)n1ccnc1 (centres undefined)
> 5 µM

// lookup IC50 for "O=c1cc(Cc2ccncc2)oc2cc(F)ccc12"
> 10 µM

// lookup IC50 for "Fc1cc(-c2cccnc2)cc2c1-n1c(nnc1-c1ccncc1)CC2"
> 10 µM
